biological target: UniProtKB G1TEI7; test: PAF receptor binding assay: inhibition of specific [3H]C18-PAF binding to rabbit platelet membranes; conditions: read-out: Ki (PAF Receptor Binding Activity), 0.6 nM [3H]C18-PAF, 60 min, 22-23 °C, Ki from IC50 (Cheng and Prusoff)
READOUT KIND: pKi
Interpret pKi as the negative base-10 log of the concentration measured in mol/L.

Which pKi value belongs to NC(=O)CCn1cc(C(=O)C2CSC(c3cccnc3)N2)c2ccccc21 (stereo not shown) [Example 121] ? 8.22

----------
biological target: PAF receptor (Oryctolagus cuniculus, UniProt G1TEI7); assay: PAF receptor binding assay: inhibition of specific [3H]C18-PAF binding to rabbit platelet membranes; conditions: 0.6 nM [3H]C18-PAF, 60 min, 22-23 °C, Ki from IC50 (Cheng and Prusoff), read-out: Ki (PAF Receptor Binding Activity)
Sequence (G1TEI7 1-342): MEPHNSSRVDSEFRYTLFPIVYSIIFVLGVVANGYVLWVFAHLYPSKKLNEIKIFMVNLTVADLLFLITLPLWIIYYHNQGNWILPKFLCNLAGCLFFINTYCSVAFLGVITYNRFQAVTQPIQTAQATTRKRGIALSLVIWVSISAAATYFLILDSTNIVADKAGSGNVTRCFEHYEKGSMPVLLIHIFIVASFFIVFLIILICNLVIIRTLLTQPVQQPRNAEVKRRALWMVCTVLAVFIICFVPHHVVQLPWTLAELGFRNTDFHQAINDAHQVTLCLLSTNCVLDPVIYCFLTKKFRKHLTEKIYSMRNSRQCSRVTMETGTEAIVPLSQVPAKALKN
Where a name gives a salt, the structure may show the parent alone.
READOUT KIND: pKi
Interpret pKi as the negative base-10 log of the concentration measured in mol/L.

Look over these answered cases.
Cc1ccc2c(C(=O)C3CSC(c4cccnc4)N3C=O)cn(C(=O)N(C)C)c2c1 (stereo not drawn); 7.48
CN(C)C(=O)n1cc(C(=O)C2CSC(c3cccnc3)N2C=O)c2ccc(OCc3ccccc3)cc21 (stereo not drawn); 7.46
O=C(C1CSC(c2cccnc2)S1)n1ccc2ccccc21 (stereo not drawn) [Example 26, oxalate]; 6.44
CC(C)(C)OC(=O)n1cc(C(=O)C2CSC(c3cccnc3)N2C=O)c2ccccc21 (stereo not drawn); 6.82
O=C(C1CSC(c2cccnc2)N1)n1ccc2cc(OCc3ccccc3)ccc21 (stereo not drawn) [Example 1]; 8.15
CN(C)C(=O)n1cc(C(=O)C2CSC(c3cccnc3)N2S(C)(=O)=O)c2ccccc21 (stereo not drawn); 5.32

Which pKi value belongs to O=C(c1c[nH]c2cc(-c3ccccc3)ccc12)C1CSC(c2cccnc2)N1 (stereo not drawn) ? 7.82

Which pKi value belongs to O=C(c1cn(C(=O)c2ccc(Cl)cc2)c2ccccc12)C1CSC(c2cccnc2)N1 (stereo not drawn) ? 8.40

Which pKi value belongs to CN(C)C(=O)n1cc(C(=O)[C@@H]2CS[C@H](c3cccnc3)N2C(=O)C(F)(F)F)c2ccccc21 (relative stereo) [Example 104] ? 6.19

Which pKi value belongs to CN(C)C(=O)n1cc(C(=O)[C@@H]2CS[C@H](c3cccnc3)N2C=O)c2ccccc21 (relative stereo) ? 6.82

Which pKi value belongs to Cc1ccc2c(c1)c(C(=O)C1CSC(c3cccnc3)N1)c(C)n2C(=O)OC(C)(C)C (stereo not drawn) [Example 67, oxalate] ? 7.41
